relative viability reference
# Test system: A-427
# measurement-protocol: relative viability (nuclei count vs DMSO), 5 days (fraction); higher = more cells survive
# measurement-conditions: first compound 1 µM
Lab note: write the figure by itself, no unit.

The examples below pair each entry with its known result.
Fill in: relative viability on A-427, entry NC(=O)Nc1cc(-c2cccc(F)c2)sc1C(=O)N[C@H]1CCCNC1 [AZD7762] + Cc1cc(Nc2cc(N3CCN(C)CC3)nc(Sc3ccc(NC(=O)C4CC4)cc3)n2)n[nH]1 [Tozasertib] (partner 0.1 µM)
0.175

Fill in: relative viability on A-427, entry NC(=O)Nc1cc(-c2cccc(F)c2)sc1C(=O)N[C@H]1CCCNC1 [AZD7762] + C[C@]1(O)C[C@@H](c2nc(-c3ccc4ccc(-c5ccccc5)nc4c3)c3c(N)nccn32)C1 [Linsitinib] (partner 1 µM)
0.976

Others:
Fill in: relative viability on A-427, entry NC(=O)Nc1cc(-c2cccc(F)c2)sc1C(=O)N[C@H]1CCCNC1 [AZD7762] + Nc1nc2[nH]cc(CCc3ccc(C(=O)N[C@@H](CCC(=O)O)C(=O)O)cc3)c2c(=O)[nH]1 [Pemetrexed] (partner 0.2 µM)
0.374
